- Study system: NEDD8-activating enzyme E1 regulatory subunit/NEDD8-activating enzyme E1 catalytic subunit (Human, UniProt Q8TBC4)
- Sequence (Q13564 whole entry): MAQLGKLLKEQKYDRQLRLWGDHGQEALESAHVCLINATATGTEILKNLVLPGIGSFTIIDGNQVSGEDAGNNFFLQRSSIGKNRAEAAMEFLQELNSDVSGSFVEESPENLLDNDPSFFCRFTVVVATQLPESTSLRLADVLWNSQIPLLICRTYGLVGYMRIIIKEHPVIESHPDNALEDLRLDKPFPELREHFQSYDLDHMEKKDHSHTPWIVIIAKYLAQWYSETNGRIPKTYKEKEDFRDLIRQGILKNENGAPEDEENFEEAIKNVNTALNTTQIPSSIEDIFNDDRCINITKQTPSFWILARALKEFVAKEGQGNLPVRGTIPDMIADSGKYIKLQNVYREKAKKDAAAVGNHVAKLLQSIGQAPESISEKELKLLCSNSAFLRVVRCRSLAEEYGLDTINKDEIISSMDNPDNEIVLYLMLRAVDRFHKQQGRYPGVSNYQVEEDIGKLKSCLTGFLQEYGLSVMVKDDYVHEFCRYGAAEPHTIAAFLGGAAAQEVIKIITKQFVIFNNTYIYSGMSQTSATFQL
- Sequence (Q8TBC4 whole entry): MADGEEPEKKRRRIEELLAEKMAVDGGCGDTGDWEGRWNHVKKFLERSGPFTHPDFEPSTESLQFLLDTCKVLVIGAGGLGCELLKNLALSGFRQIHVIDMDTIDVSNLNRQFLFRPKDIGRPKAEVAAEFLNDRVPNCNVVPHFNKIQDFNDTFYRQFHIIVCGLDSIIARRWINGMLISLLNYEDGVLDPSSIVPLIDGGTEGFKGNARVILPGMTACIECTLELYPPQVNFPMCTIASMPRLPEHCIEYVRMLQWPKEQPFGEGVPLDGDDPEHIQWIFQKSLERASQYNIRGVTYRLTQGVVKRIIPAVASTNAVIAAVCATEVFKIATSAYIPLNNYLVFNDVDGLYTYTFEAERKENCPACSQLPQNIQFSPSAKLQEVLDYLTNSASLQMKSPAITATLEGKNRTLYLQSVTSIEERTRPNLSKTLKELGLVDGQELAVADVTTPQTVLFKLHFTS
- Experiment summary: Test of Inhibiting NAE Enzyme Activity at the Molecular Level
pIC50: −log10 of the molar value.
For each record, write down the corresponding pIC50.

Exercise: Recorded pIC50 for NS(=O)(=O)OCC1CC(n2nnc3c(N[C@@H]4c5ccccc5C[C@@H]4O)ncnc32)CC1O (some centres undefined) , please?
Solution: > 7.00

Exercise: Recorded pIC50 for NS(=O)(=O)OCC1CC(n2nnc3c(Nc4cnc5ccccn45)ncnc32)CC1O (centres undefined) , please?
Solution: < 6.00

Exercise: Recorded pIC50 for COC(=O)[C@H]1C=C[C@@H](Nc2ncnc3c2nnn3C2CC(O)C(COS(N)(=O)=O)C2)C1 (some centres undefined) , please?
Solution: > 7.00

Exercise: Recorded pIC50 for NS(=O)(=O)OC[C@@H]1C[C@@H](n2nnc3c(N[C@@H]4C[C@H]4c4ccc(F)c(F)c4)ncnc32)CC1O (some centres undefined) , please?
Solution: < 6.00

Exercise: Recorded pIC50 for CCCCCCNc1ncnc2c1nnn2C1CC(O)C(COS(N)(=O)=O)C1 (centres undefined) , please?
Solution: > 7.00

Exercise: Recorded pIC50 for NS(=O)(=O)OCC1CC(n2nnc3c(NCc4cccs4)ncnc32)CC1O (centres undefined) , please?
Solution: > 7.00

Exercise: Recorded pIC50 for NS(=O)(=O)OCC1CC(n2nnc3c(N[C@H]4CCc5ccccc54)ncnc32)CC1O (some centres undefined) , please?
Solution: > 7.00

Exercise: Recorded pIC50 for NS(=O)(=O)OCC1CC(n2nnc3c(Nn4ccc5ccccc54)ncnc32)CC1O (centres undefined) , please?
Solution: < 6.00

Exercise: Recorded pIC50 for NS(=O)(=O)OCC1CC(n2nnc3c(NCc4ccccc4F)ncnc32)CC1O (centres undefined) , please?
Solution: > 7.00

Exercise: Recorded pIC50 for NS(=O)(=O)OCC1CC(n2nnc3c(NCCc4ccccc4)ncnc32)CC1O (centres undefined) , please?
Solution: > 7.00

Exercise: Recorded pIC50 for NS(=O)(=O)OCC1CC(n2nnc3c(Nc4n[nH]c5ccccc45)ncnc32)CC1O (centres undefined) , please?
Solution: < 6.00

Exercise: Recorded pIC50 for NS(=O)(=O)OCC1CC(n2nnc3c(NCc4ccco4)ncnc32)CC1O (centres undefined) , please?
Solution: > 7.00

Exercise: Recorded pIC50 for NS(=O)(=O)OCC1CC(n2nnc3c(N[C@H]4CC5(CCNCC5)c5ccccc54)ncnc32)CC1O (some centres undefined) , please?
Solution: > 7.00

Exercise: Recorded pIC50 for NS(=O)(=O)OCC1CC(n2nnc3c(NC4CCCC4)ncnc32)CC1O (centres undefined) , please?
Solution: < 6.00
